Data credit: ChEMBL document CHEMBL5385925

# System: Transient receptor potential cation channel subfamily A member 1 (Rattus norvegicus, UniProt Q6RI86)
# Sequence (Q6RI86 whole entry): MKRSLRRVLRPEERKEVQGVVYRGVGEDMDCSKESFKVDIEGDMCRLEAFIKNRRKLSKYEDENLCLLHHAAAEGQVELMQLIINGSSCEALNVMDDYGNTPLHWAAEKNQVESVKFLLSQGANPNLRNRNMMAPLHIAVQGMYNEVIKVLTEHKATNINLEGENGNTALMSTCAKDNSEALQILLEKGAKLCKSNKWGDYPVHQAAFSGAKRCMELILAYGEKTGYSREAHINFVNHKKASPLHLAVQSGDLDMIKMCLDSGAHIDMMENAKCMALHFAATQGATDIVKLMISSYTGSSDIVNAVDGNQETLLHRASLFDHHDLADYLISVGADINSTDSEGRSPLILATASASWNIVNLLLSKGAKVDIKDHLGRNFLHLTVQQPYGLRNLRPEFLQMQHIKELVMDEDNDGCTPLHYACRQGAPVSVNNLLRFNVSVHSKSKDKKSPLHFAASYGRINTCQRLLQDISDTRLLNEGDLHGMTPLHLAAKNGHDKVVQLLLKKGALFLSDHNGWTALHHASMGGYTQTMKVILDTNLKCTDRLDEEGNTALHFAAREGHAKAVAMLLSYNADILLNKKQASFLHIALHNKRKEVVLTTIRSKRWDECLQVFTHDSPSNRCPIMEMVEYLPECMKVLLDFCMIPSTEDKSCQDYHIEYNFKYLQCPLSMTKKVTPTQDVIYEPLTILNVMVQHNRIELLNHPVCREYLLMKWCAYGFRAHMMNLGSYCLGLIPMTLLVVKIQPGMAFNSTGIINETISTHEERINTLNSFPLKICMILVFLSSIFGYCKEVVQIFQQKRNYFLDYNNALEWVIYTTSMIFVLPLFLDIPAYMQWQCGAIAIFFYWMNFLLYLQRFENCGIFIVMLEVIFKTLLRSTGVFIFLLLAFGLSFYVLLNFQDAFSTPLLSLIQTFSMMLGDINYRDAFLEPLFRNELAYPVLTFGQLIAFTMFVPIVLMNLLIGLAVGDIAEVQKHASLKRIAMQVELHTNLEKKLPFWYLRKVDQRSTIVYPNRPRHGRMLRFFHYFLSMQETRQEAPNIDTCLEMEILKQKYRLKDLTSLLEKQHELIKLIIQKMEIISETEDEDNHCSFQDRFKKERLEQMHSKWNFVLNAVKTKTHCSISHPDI
# Assay Comment: Antagonist activity at rat TRPA1 transfected in HEK293 cells assessed as desensitization by measuring inhibition of AITC induced increase in intracellular Ca2+ concentration preincubated for 5 mins followed by AITC stimulation by Fluo4-AM dye based assay
# Format: cell-based
Measured Metric: pIC50
Scale note: pIC50 = -log10(concentration in M).

Tell me the measured pIC50 of C=C(C)C(O)CC/C(C)=C\Cc1c(O)cc(CCCCC)c(C(=O)O)c1O (stereo not given) , please.
4.86

Tell me the measured pIC50 of C=C(C)[C@H](CCC(C)=O)[C@@H]1c2c(cc(CCCCC)c(C(=O)O)c2O)O[C@H]1O , please.
4.75

Tell me the measured pIC50 of C=C(C)C(O)CC/C(C)=C/Cc1c(O)cc(CCCCC)cc1O (racemic) , please.
5.10

Tell me the measured pIC50 of C=C(C)C(O)CC/C(C)=C/Cc1c(O)cc(CCCCC)c(C(=O)O)c1O (stereo not given) , please.
4.43

###

# System: Transient receptor potential cation channel subfamily M member 8 (Rattus norvegicus)
# Sequence (Q8R455 whole entry): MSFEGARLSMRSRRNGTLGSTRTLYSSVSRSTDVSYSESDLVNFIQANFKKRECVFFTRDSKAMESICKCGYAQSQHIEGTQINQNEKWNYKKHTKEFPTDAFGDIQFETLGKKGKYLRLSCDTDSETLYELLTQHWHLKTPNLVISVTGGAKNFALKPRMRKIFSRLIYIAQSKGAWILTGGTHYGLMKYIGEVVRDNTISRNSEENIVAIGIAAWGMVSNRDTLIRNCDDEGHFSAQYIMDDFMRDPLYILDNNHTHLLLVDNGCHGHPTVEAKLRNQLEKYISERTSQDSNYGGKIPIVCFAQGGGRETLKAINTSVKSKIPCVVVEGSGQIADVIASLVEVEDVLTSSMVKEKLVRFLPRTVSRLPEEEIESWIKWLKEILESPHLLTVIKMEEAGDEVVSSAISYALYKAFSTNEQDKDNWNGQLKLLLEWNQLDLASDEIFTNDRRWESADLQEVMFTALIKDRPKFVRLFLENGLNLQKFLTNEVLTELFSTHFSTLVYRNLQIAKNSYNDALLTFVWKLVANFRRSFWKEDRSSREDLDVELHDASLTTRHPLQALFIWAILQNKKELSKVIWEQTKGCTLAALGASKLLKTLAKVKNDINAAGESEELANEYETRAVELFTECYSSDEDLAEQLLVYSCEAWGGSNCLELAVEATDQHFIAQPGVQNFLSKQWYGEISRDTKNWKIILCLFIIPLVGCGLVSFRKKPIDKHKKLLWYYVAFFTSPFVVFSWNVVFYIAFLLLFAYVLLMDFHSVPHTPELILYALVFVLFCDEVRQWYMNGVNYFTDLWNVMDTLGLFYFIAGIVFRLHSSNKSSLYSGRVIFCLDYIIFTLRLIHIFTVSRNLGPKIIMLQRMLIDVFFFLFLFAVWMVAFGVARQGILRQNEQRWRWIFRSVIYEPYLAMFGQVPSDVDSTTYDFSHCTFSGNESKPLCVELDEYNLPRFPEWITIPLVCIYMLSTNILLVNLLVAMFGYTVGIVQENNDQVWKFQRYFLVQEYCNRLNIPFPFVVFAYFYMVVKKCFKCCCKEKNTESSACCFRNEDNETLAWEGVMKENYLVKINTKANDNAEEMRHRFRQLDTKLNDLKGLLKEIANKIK
# Assay Comment: Antagonist activity at rat TRPM8 transfected in HEK293 cells assessed as inhibition of icilin induced increase in intracellular Ca2+ concentration preincubated for 5 mins followed by icilin stimulation by Fluo4-AM dye based assay
Measured Metric: log10 IC50 (log10 of the value in µM)
In plain terms, each number is the log10 of measured IC50 in µM.

Tell me the measured log10 IC50 of C=C(C)[C@@H](O)CC/C(C)=C/Cc1c(O)cc(CCCCC)c(C(=O)O)c1O , please.
1.52

Tell me the measured log10 IC50 of CCCCCc1cc(O)c(C/C=C(\C)CCC(=O)O)c(O)c1C(=O)O , please.
1.47

Tell me the measured log10 IC50 of C=C(C)C(O)CC/C(C)=C/Cc1c(O)cc(CCCCC)c(C(=O)O)c1O (stereo unspecified) , please.
1.02

Tell me the measured log10 IC50 of C=C(C)[C@H](CCC(C)=O)[C@@H]1c2c(cc(CCCCC)c(C(=O)O)c2O)O[C@@H]1O , please.
0.90

Tell me the measured log10 IC50 of CCCCCC1=CC(=O)C(C/C=C(\C)CCC=C(C)C)=C(O)C1=O , please.
0.48

Tell me the measured log10 IC50 of C=C(C)C(O)CC/C(C)=C/Cc1c(O)cc(CCCCC)cc1O (racemic) , please.
-0.10

Tell me the measured log10 IC50 of CCCCCc1cc(O)c(C/C=C(\C)CCC=C(C)C)c(O)c1C(=O)O , please.
0.12

Tell me the measured log10 IC50 of C=C(C)[C@H](O)CC/C(C)=C/Cc1c(O)cc(CCCCC)c(C(=O)O)c1O , please.
0.72

Tell me the measured log10 IC50 of C=C(C)[C@H](CCC(C)=O)[C@@H]1c2c(cc(CCCCC)c(C(=O)O)c2O)O[C@H]1O , please.
1.38

Tell me the measured log10 IC50 of C=C(C)C(O)CC/C(C)=C\Cc1c(O)cc(CCCCC)c(C(=O)O)c1O (stereo unspecified) , please.
0.60

Tell me the measured log10 IC50 of CCCCCc1cc(O)c(C/C=C(\C)CCC(O)C(C)(C)O)c(O)c1C(=O)O (stereo unspecified) , please.
1.24

###

# System: UniProt Q6RI86
# Assay Comment: Antagonist activity at rat TRPA1 transfected in HEK293 cells assessed as desensitization by measuring inhibition of AITC induced increase in intracellular Ca2+ concentration preincubated for 5 mins followed by AITC stimulation by Fluo4-AM dye based assay
# Assay type: cell-based
Kindly state IC50 for each of the entries shown.
Reply numerically in µM, unit not repeated.

API: value(readout=IC50, system=UniProt Q6RI86) for record C=C(C)[C@H](CCC(C)=O)[C@@H]1c2c(cc(CCCCC)c(C(=O)O)c2O)O[C@@H]1O
19.2

API: value(readout=IC50, system=UniProt Q6RI86) for record CCCCCC1=CC(=O)C(C/C=C(\C)CCC=C(C)C)=C(O)C1=O
8.4

API: value(readout=IC50, system=UniProt Q6RI86) for record CCCCCc1cc(O)c(C/C=C(\C)CCC(O)C(C)(C)O)c(O)c1C(=O)O (stereo unspecified)
25.1

API: value(readout=IC50, system=UniProt Q6RI86) for record CCCCCc1cc(O)c(C/C=C(\C)CCC=C(C)C)c(O)c1C(=O)O [CANNABIGEROLIC ACID]
7.14

###

# System: Transient receptor potential cation channel subfamily A member 1 (Rattus norvegicus, UniProt Q6RI86)
# Assay Comment: Agonist activity at rat TRPA1 transfected in HEK293 cells assessed as increase in intracellular Ca2+ concentration by Fluo4-AM dye based assay
pEC50: −log10 of the molar value.
If the reported pEC50 equals or exceeds 5, assign Y. If not, assign N.

Confirm if pEC50 reported for the compound C=C(C)C(O)CC/C(C)=C/Cc1c(O)cc(CCCCC)cc1O (racemic) is 5 or above.
Y

Confirm if pEC50 reported for the compound C=C(C)[C@@H](O)CC/C(C)=C/Cc1c(O)cc(CCCCC)c(C(=O)O)c1O is 5 or above.
N

Confirm if pEC50 reported for the compound CCCCCc1cc(O)c(C/C=C(\C)CCC(=O)O)c(O)c1C(=O)O is 5 or above.
N

Confirm if pEC50 reported for the compound C=C(C)[C@H](CCC(C)=O)[C@@H]1c2c(cc(CCCCC)c(C(=O)O)c2O)O[C@H]1O is 5 or above.
Y

Confirm if pEC50 reported for the compound C=C(C)C(O)CC/C(C)=C\Cc1c(O)cc(CCCCC)c(C(=O)O)c1O (stereo unspecified) is 5 or above.
Y

###

Kindly state Efficacy for each of the entries shown.
# System: Transient receptor potential cation channel subfamily A member 1 (Rattus norvegicus)
# Assay Comment: Agonist activity at rat TRPA1 transfected in HEK293 cells assessed as increase in intracellular Ca2+ concentration by measuring efficacy by Fluo4-AM dye based assay relative to AITC
# Type: cell-based
# Condition Parameters: filed as agonist
Reply numerically in %, unit not repeated.

Tell me the measured Efficacy of CCCCCc1cc(O)c(C/C=C(\C)CCC=C(C)C)c(O)c1C(=O)O [CANNABIGEROLIC ACID] , please.
183

Tell me the measured Efficacy of CCCCCc1cc(O)c(C/C=C(\C)CCC(=O)O)c(O)c1C(=O)O , please.
40.4

Tell me the measured Efficacy of CCCCCc1cc(O)c(C/C=C(\C)CCC=C(C)C)c(O)c1 , please.
99.9

Tell me the measured Efficacy of C=C(C)[C@H](CCC(C)=O)[C@@H]1c2c(cc(CCCCC)c(C(=O)O)c2O)O[C@@H]1O , please.
85.7

Tell me the measured Efficacy of CCCCCc1cc(O)c(C/C=C(\C)CCC(O)C(C)(C)O)c(O)c1C(=O)O (stereo unspecified) , please.
84.1

Tell me the measured Efficacy of C=C(C)[C@H](O)CC/C(C)=C/Cc1c(O)cc(CCCCC)c(C(=O)O)c1O , please.
68.5

Tell me the measured Efficacy of C=C(C)C(O)CC/C(C)=C/Cc1c(O)cc(CCCCC)cc1O (racemic) , please.
75.3

Tell me the measured Efficacy of C=C(C)[C@H](CCC(C)=O)[C@@H]1c2c(cc(CCCCC)c(C(=O)O)c2O)O[C@H]1O , please.
91.5

Tell me the measured Efficacy of CCCCCC1=CC(=O)C(C/C=C(\C)CCC=C(C)C)=C(O)C1=O , please.
134

Tell me the measured Efficacy of C=C(C)C(O)CC/C(C)=C/Cc1c(O)cc(CCCCC)c(C(=O)O)c1O (stereo unspecified) , please.
96.1

Tell me the measured Efficacy of C=C(C)C(O)CC/C(C)=C\Cc1c(O)cc(CCCCC)c(C(=O)O)c1O (stereo unspecified) , please.
100

###

# System: Transient receptor potential cation channel subfamily A member 1 (Rattus norvegicus, UniProt Q6RI86)
# Assay Comment: Agonist activity at rat TRPA1 transfected in HEK293 cells assessed as increase in intracellular Ca2+ concentration by Fluo4-AM dye based assay
Lab note: cut-off is 9 µM. Strictly less in EC50 is Satisfied. Exactly 9 µM or more is Not satisfied.

Please determine if C=C(C)C(O)CC/C(C)=C/Cc1c(O)cc(CCCCC)c(C(=O)O)c1O (stereo unspecified) is below 9 µM in terms of EC50.
Not satisfied

Please determine if CCCCCc1cc(O)c(C/C=C(\C)CCC(O)C(C)(C)O)c(O)c1C(=O)O (stereo unspecified) is below 9 µM in terms of EC50.
Not satisfied

Please determine if CCCCCc1cc(O)c(C/C=C(\C)CCC=C(C)C)c(O)c1C(=O)O is below 9 µM in terms of EC50.
Satisfied

Please determine if C=C(C)[C@H](O)CC/C(C)=C/Cc1c(O)cc(CCCCC)c(C(=O)O)c1O is below 9 µM in terms of EC50.
Satisfied

Please determine if CCCCCC1=CC(=O)C(C/C=C(\C)CCC=C(C)C)=C(O)C1=O is below 9 µM in terms of EC50.
Satisfied
